Below: a set of entries, each annotated with reported EC50.
Molecular target: T1, human PD-L1-Fc protein (human, UniProt Q9NZQ7 19-238)
T1 construct: coating antigen of the ELISAs; also called rhPD-L1-Fc; not shown: Fc
T1 sequence (Q9NZQ7 19-238 limits assumed): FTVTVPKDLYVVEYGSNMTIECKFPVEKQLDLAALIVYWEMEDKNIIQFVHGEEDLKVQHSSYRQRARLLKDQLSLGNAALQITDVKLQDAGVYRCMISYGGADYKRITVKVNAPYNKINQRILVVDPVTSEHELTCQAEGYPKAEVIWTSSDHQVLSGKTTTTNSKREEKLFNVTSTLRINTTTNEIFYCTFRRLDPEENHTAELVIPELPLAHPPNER
Assay: ELISA, antibody titrated on coated human PD-L1-Fc, OD 450nm; upper right panel
Field format: number, assumed ng/mL, no unit text.

binder	parameterMeasured	testValue
Hu89C10H8-11 (antibody, V domains shown, humanized) VH: EVQLVESGGGLVKPGGSLRLSCAASGFTFSNYWMTWIRQAPGKGLEWVASITNTGSSTFYPDSVKGRFTISRDNAKNSLYLQMNSLRAEDTAVYYCTRDTTIAPFDYWGQGTMVTVSS VL: DIQMTQSPSSLSASVGDRVTITCKASQNLNEYLNWYQQKPGKAPKRLIYKTNTLQAGIPSRFSGSGSGIDYTLTISSLQPEDFATYYCSQYNSGNTFGQGTKLEIK	EC50	8.78
Hu89C10H8-7 (antibody, V domains shown, humanized) VH: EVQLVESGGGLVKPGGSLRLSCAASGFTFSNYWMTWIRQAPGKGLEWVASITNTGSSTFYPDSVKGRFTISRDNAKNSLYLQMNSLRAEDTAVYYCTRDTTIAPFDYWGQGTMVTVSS VL: DIQMTQSPSSLSASVGDRVTITCKASQNLNEYLNWYQQKPGKAPKRLIYKTNTLQAGIPSRFSGSGSGTDYTLTISSLQPEDFATYYCSQYNSGNTFGQGTKLEIK	EC50	7.05

Please look up its EC50: Hu67F3G7-9 (antibody, V domains shown, humanized) VH: EVQLVQSGAEVKKPGASVKVSCKASGYIFTDFWVSWVRQAPGQGLEWIGEIYPNSGVSRYNEKFKGRVTMTVDKSISTAYMELSRLRSDDTAVYYCARYFGYTYWFGYWGQGTLVTVSS VL: DTVLTQSPSSLSASVGDRVTITCRASKSVSTYMHWYQQKPGKAPKLLIYSASHLESGVPSRFSGSGSGTDFTLTISSLQPEDFATYYCQQSNELPVTFGGGTKVEIK 8.45
